Recorded measurements of IC50, one per entry
target: ETA (Oryctolagus cuniculus); settings: read-out: ERBA-A IC50; [125I]-ET-1, rabbit renal artery vascular smooth muscle cells
property_measured: IC50

1) COc1ccc(C2(O)OC(=O)C(c3ccc4c(c3)OCO4)=C2Cc2ccc(C(=O)NCCN3CCOCC3)cc2)cc1 (racemic) [Example 350]: 290 nM
2) CCCOc1cccc(C/C(C(=O)c2ccc(OC)cc2)=C(/C(=O)O)c2ccc3c(c2)OCO3)c1 [Example 253]: 17 nM
3) COc1ccc(C(=O)/C(Cc2ccc(OC)c(C)c2)=C(\C(=O)O)c2ccc3c(c2)OCO3)cc1 [Example 172]: 7200 nM
4) O=C1OC(O)(c2ccc(Cl)cc2)C(Cc2cccc(Cl)c2)=C1c1ccc2c(c1)OCO2 (centres unmarked) [Example 74]: 2500 nM
5) COc1ccc(C2(O)OC(=O)C(c3cc(OC)cc(OC)c3)=C2Cc2ccc(Cl)cc2)cc1 (centres unmarked) [Example 274]: 140 nM
6) O=C1OC(O)(c2ccc(Cl)cc2)C(Cc2ccc3ccccc3c2)=C1c1ccc2c(c1)OCO2 (racemic) [Example 43]: 2700 nM
7) COc1ccc(C2(O)OC(=O)C(c3ccc4c(c3)OCO4)=C2Cc2ccc(OC)c(C)c2)cc1 (centres unmarked) [Example 89]: 6 nM
8) COc1ccc(C2(O)OC(=O)C(c3ccc4c(c3)OCO4)=C2CC2CCCCC2)cc1 (centres unmarked) [Example 221]: 20 nM

----------
target: human ETB receptor (Homo sapiens, UniProt P24530); construct: expressed in transfected cells; host or cells: CHO-K1 cells, pRc-CMW (so in the source) expression vector, electroporation; membranes used; assay: ERBA-B: [125I]-ET-1 binding, recombinant human ETB receptor expressed in CHO-K1 cells; conditions: ERBA-B IC50, human cloned receptor data
Sequence (P24530 27-442): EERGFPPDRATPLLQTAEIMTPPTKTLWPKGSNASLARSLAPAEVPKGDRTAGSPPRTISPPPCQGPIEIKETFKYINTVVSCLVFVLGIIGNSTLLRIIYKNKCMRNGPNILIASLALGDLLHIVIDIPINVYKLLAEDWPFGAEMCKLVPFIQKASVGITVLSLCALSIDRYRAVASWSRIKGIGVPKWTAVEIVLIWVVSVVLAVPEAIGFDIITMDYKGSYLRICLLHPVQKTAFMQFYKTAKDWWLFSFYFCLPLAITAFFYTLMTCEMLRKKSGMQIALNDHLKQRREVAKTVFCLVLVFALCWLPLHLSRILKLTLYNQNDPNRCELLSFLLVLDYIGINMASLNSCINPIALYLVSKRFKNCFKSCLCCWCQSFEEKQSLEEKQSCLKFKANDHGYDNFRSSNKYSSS
pIC50: −log10 of the molar value.
property_measured: pIC50

1. COc1ccc(C(=O)/C(Cc2cc(OC)c(OC)c(OC)c2)=C(\C(=O)O)c2ccc3c(c2)OCO3)cc1: 6.04

----------
Recorded measurements of IC50, one per entry
target: ETA (Oryctolagus cuniculus, UniProt A5A8K3); conditions: read-out: AAR-A; ET-1 (0.3 nM) stimulated arachidonic acid release
property_measured: IC50 (nM)

1) COc1ccc(C2(O)OC(=O)C(c3ccc4c(c3)OCO4)=C2Cc2ccc(OC)c(C)c2)cc1 (centres unmarked) [Example 89]: 39
2) COc1ccc(C2(O)OC(=O)C(c3ccc4c(c3)OCO4)=C2CC2CCCCC2)cc1 (centres unmarked) [Example 221]: 120

----------
Recorded measurements of pIC50, one per entry
Target: ETA (Oryctolagus cuniculus, UniProt A5A8K3)
Sequence (A5A8K3 21-427): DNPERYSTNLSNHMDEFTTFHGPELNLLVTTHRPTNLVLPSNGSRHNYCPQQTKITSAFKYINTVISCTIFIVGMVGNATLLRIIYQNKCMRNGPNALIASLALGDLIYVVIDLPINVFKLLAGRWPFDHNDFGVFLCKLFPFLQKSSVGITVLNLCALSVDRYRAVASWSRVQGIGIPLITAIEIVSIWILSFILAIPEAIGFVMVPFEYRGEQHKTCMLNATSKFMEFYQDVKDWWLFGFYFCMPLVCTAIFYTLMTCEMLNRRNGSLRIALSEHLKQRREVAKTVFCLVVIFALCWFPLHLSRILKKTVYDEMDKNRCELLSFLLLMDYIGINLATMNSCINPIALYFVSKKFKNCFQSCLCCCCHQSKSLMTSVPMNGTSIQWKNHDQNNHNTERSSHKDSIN
Details: ERBA-A IC50, [125I]-ET-1, rabbit renal artery vascular smooth muscle cells
pIC50: −log10 of the molar value.
property_measured: pIC50

1. CC(C)c1ccc(CC2=C(c3ccc(N(C)C)cc3)C(=O)OC2(O)c2ccc(Cl)cc2)cc1 (racemic) [Example 57]: 4.96
2. COc1cccc(C2(O)OC(=O)C(c3ccc4c(c3)OCO4)=C2Cc2ccccc2)c1 (stereo not shown) [Example 220]: 6.52
3. COc1ccc(C(=O)/C(Cc2ccc(C(=O)NCCN3CCOCC3)cc2)=C(\C(=O)O)c2ccc3c(c2)OCO3)cc1 [Example 349]: 6.29
4. O=C1OC(O)(c2ccc(Cl)cc2)C(Cc2ccccc2)=C1c1ccc2c(c1)OCCO2 (stereo not shown) [Example 30]: 5.10

Attribution: patent US5691373A
